# Method summary: Cocrystal screening by slurry method (Comparative Examples 4-1 to 4-6), powder X-ray diffraction
# Type: physicochemical
# Parameters: key: A cocrystal was completely formed.; B: A mixture of a cocrystal and the host compound or guest compound was formed.; C: A cocrystal was not formed (a mixture of the host compound and the guest compound was formed)
# Run parameters: host carbamazepine, slurry in tetrahydrofuran, room temperature 7 days
Value kind: Cocrystal formation, Comparative Example 4-3

{"columns": ["Molecule", "Result"],
 "data": [
  ["NC(=O)c1cccnc1 [Nicotinamide]", "A"],
  ["O=S(=O)(O)CCS(=O)(=O)O [Ethanedisulfonic acid]", "A"],
  ["NC(=O)c1ccccc1 [Benzamide]", "A"],
  ["O=C(O)/C=C\\C(=O)O [Maleic acid]", "A"]
]}

====

# Method summary: Cocrystal screening by heating method without menthol (Comparative Example 3)
# Type: physicochemical
# Design: key: A cocrystal was completely formed.; B: A mixture of a cocrystal and the host compound or guest compound was formed.; C: A cocrystal was not formed (a mixture of the host compound and the guest compound was formed)
# Run parameters: host theophylline, equimolar guest, no menthol, 4 hours at 80° C.
Value kind: Cocrystal formation, Comparative Example 3

Solved entries:
{"columns": ["Compound", "Result"],
 "data": [
  ["N=C(N)NCCC[C@H](N)C(=O)O [L(+)-Arginine]", "C"],
  ["NC(=O)c1ccccc1 [Benzamide]", "C"],
  ["NC(=O)c1cccnc1 [Nicotinamide]", "C"],
  ["C/C=C/C=C/C(=O)O", "B"],
  ["NCC(=O)O", "C"],
  ["O=C(O)C(=O)O", "C"],
  ["O=C(O)CCCC(=O)O", "B"],
  ["O=C1NS(=O)(=O)c2ccccc21", "C"]
]}

**Query** Form field: reported Cocrystal formation, Comparative Example 3 of O=C(O)CC(O)(CC(=O)O)C(=O)O
**Result** B

**Query** Quick one: Cocrystal formation, Comparative Example 3 for O=C(O)/C=C\C(=O)O ?
**Result** B

**Query** Given the entry O=S(=O)(O)CCS(=O)(=O)O , report its measured Cocrystal formation, Comparative Example 3.
**Result** A

**Query** What does the record list as Cocrystal formation, Comparative Example 3 for O=C(O)c1ccccc1 ?
**Result** B

**Query** So what does the record say about Cocrystal formation, Comparative Example 3 for CC(C)C[C@H](N)C(=O)O ?
**Result** C

====

# Method summary: Cocrystal screening by slurry method (Comparative Examples 4-1 to 4-6), powder X-ray diffraction
# Format: physicochemical
# Design: key: A cocrystal was completely formed.; B: A mixture of a cocrystal and the host compound or guest compound was formed.; C: A cocrystal was not formed (a mixture of the host compound and the guest compound was formed)
# Run parameters: host carbamazepine, slurry in toluene, room temperature 7 days
Value kind: Cocrystal formation, Comparative Example 4-4

{"columns": ["Molecule", "Result"],
 "data": [
  ["O=C1NS(=O)(=O)c2ccccc21", "A"],
  ["NCC(=O)O", "C"],
  ["O=C(O)CC(=O)O", "B"],
  ["O=C(O)C(=O)O", "B"],
  ["O=S(=O)(O)CCS(=O)(=O)O", "A"]
]}

**Query** What Cocrystal formation, Comparative Example 4-4 value was documented for this molecule, O=C(O)CCCC(=O)O ?
**Result** C

**Query** Look at this molecule and give its reported Cocrystal formation, Comparative Example 4-4. O=C(O)c1ccccc1
**Result** C

**Query** Fill in the blank: the reported Cocrystal formation, Comparative Example 4-4 of NC(=O)c1ccccc1 [Benzamide] is ____.
**Result** A

**Query** Need Cocrystal formation, Comparative Example 4-4 of O=C(O)CC(O)(CC(=O)O)C(=O)O , thanks.
**Result** C

**Query** # input molecule: NC(=O)c1cccnc1 [Nicotinamide] ; wanted: its Cocrystal formation, Comparative Example 4-4
**Result** A

**Query** Fill in: Cocrystal formation, Comparative Example 4-4 of C/C=C/C=C/C(=O)O is ___
**Result** C

**Query** Form field: reported Cocrystal formation, Comparative Example 4-4 of O=C(O)/C=C\C(=O)O
**Result** A

**Query** # lookup: Cocrystal formation, Comparative Example 4-4 of N=C(N)NCCC[C@H](N)C(=O)O [L(+)-Arginine]
**Result** C

**Query** Data request, read-out Cocrystal formation, Comparative Example 4-4, for CC(C)C[C@H](N)C(=O)O
**Result** C

====

# Method summary: Cocrystal screening by slurry method (Comparative Examples 4-1 to 4-6), powder X-ray diffraction
# Type: physicochemical
# Design: key: A cocrystal was completely formed.; B: A mixture of a cocrystal and the host compound or guest compound was formed.; C: A cocrystal was not formed (a mixture of the host compound and the guest compound was formed)
# Run parameters: host carbamazepine, slurry in acetone, room temperature 7 days
# Method: 3 mg (0.0127 mmoles) of carbamazepine and a guest compound shown in Table 4 in an equimolar amount (0.0127 mmoles) to carbamazepine were weighed and put into a glass container, to which was then added 60 μL of water. These were shaken at room temperature for 7 days, and the obtained residues were subjected to powder X-ray diffraction measurement. […]
Value kind: Cocrystal formation, Comparative Example 4-6

Solved cases (5 shown):
{"columns": ["Compound", "Result"],
 "data": [
  ["O=C(O)CCCC(=O)O", "C"],
  ["N=C(N)NCCC[C@H](N)C(=O)O [L(+)-Arginine]", "C"],
  ["O=C(O)CC(=O)O", "C"],
  ["O=C1NS(=O)(=O)c2ccccc21", "B"],
  ["NC(=O)c1cccnc1 [Nicotinamide]", "B"]
]}

**Query** Quick check: Cocrystal formation, Comparative Example 4-6 of O=S(=O)(O)CCS(=O)(=O)O ?
**Result** A

**Query** // returns reported Cocrystal formation, Comparative Example 4-6 for input O=C(O)C(=O)O
**Result** C

====

# Method summary: Cocrystal screening by slurry method (Comparative Examples 1-1 to 1-6), powder X-ray diffraction
# Type: physicochemical
# Parameters: key: A cocrystal was completely formed.; B: A mixture of a cocrystal and the host compound or guest compound was formed.; C: A cocrystal was not formed (a mixture of the host compound and the guest compound was formed)
# Run parameters: host theophylline, slurry in ethyl acetate, room temperature 7 days
Value kind: Cocrystal formation, Comparative Example 1-5

Recorded Cocrystal formation, Comparative Example 1-5, per entry:
{"columns": ["Compound", "Result"],
 "data": [
  ["N=C(N)NCCC[C@H](N)C(=O)O [L(+)-Arginine]", "C"],
  ["NC(=O)c1ccccc1 [Benzamide]", "C"],
  ["C/C=C/C=C/C(=O)O", "A"],
  ["O=C(O)/C=C\\C(=O)O", "A"],
  ["CC(C)C[C@H](N)C(=O)O", "C"]
]}

Continue with the next compound.
**Query** Query (compound): O=S(=O)(O)CCS(=O)(=O)O ; field requested: Cocrystal formation, Comparative Example 1-5
**Result** A

====

# Method summary: Cocrystal screening by slurry method (Comparative Examples 1-1 to 1-6), powder X-ray diffraction
# Format: physicochemical
# Parameters: key: A cocrystal was completely formed.; B: A mixture of a cocrystal and the host compound or guest compound was formed.; C: A cocrystal was not formed (a mixture of the host compound and the guest compound was formed)
# Run parameters: host theophylline, slurry in acetone, room temperature 7 days
Value kind: Cocrystal formation, Comparative Example 1-6

See these solved cases before continuing.
{"columns": ["Compound", "Result"],
 "data": [
  ["O=C(O)C(=O)O", "A"],
  ["C/C=C/C=C/C(=O)O", "C"],
  ["O=C(O)CC(O)(CC(=O)O)C(=O)O", "C"],
  ["NCC(=O)O", "C"],
  ["CC(C)C[C@H](N)C(=O)O", "C"],
  ["O=C1NS(=O)(=O)c2ccccc21", "C"],
  ["O=C(O)CCCC(=O)O", "C"],
  ["O=S(=O)(O)CCS(=O)(=O)O", "A"]
]}

**Query** Please give the measured Cocrystal formation, Comparative Example 1-6 for this compound: N=C(N)NCCC[C@H](N)C(=O)O [L(+)-Arginine]
**Result** C

**Query** So what's the measured Cocrystal formation, Comparative Example 1-6 for this one? O=C(O)/C=C\C(=O)O
**Result** C

====

# Method summary: Cocrystal screening by slurry method (Comparative Examples 1-1 to 1-6), powder X-ray diffraction
# Type: physicochemical
# Design: key: A cocrystal was completely formed.; B: A mixture of a cocrystal and the host compound or guest compound was formed.; C: A cocrystal was not formed (a mixture of the host compound and the guest compound was formed)
# Run parameters: host theophylline, slurry in toluene, room temperature 7 days
Value kind: Cocrystal formation, Comparative Example 1-4

Check out these entries, answers already filled in.
{"columns": ["Molecule", "Result"],
 "data": [
  ["O=S(=O)(O)CCS(=O)(=O)O", "A"],
  ["CC(C)C[C@H](N)C(=O)O", "C"],
  ["NCC(=O)O", "C"],
  ["O=C(O)CCCC(=O)O", "C"],
  ["O=C(O)CC(O)(CC(=O)O)C(=O)O", "C"]
]}

**Query** Which Cocrystal formation, Comparative Example 1-4 value belongs to C/C=C/C=C/C(=O)O ?
**Result** A

**Query** Requested read-out: Cocrystal formation, Comparative Example 1-4. Entry: O=C(O)/C=C\C(=O)O
**Result** A

**Query** Can you look up the measured Cocrystal formation, Comparative Example 1-4 of O=C(O)C(=O)O for me?
**Result** C

**Query** Requested read-out: Cocrystal formation, Comparative Example 1-4. Entry: O=C(O)c1ccccc1
**Result** C
